Test system: SNB-19
assay.method.text: NCI tumour cell line growth inhibition, 48 h
Activity calls are given as the source filed them. Cut-off read from the data, not from the text of the source: active = GI50 up to about 1.1 µM and inactive = higher. Non-standard residues stand in square brackets, D forms with d. Residues, ends and D or L forms follow the SMILES beside them. *: point of attachment. Ac5c = NC1(C(=O)O)CCCC1; Cbz = O=C(OCc1ccccc1)*; Boc = CC(C)(C)OC(=O)*; tBu = CC(C)(C)*
// allowed return values: active, inactive

Please review the following examples before continuing.
# molecule, measured.target, cat
data = [
    ("COC(=O)C1(NC(=O)C(Cc2ccccc2)NC(=O)C(NC(=O)C(CCCCNC(=O)OC(C)(C)C)NC(=O)C(Cc2c[nH]c3ccccc23)NC(=O)C(Cc2ccccc2)NC(=O)OCc2ccccc2)C(C)OC(C)(C)C)CCCC1 (stereo not drawn) (Cbz-FWK(Boc)T(tBu)F[Ac5c]-OMe; configuration not given here)", "SNB-19", "inactive"),
    ("CCSC1=N/C(=C/c2ccccc2O)C(=O)N1", "SNB-19", "inactive"),
]

Query molecule follows.
Query: Please indicate how the test categorized COc1ccc(CC(C#N)c2cc(OC)c(OC)c(OC)c2)cc1 (stereo not drawn) .
Result: active
